system: biotinyl-Ile-oxazolone; experiment: self-aminoacylation, catalytic enhancement (BIO) (fold over background); higher = more active; k-Seq, kA / k0A0; sequences stand for … in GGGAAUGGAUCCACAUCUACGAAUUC…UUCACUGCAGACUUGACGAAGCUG
Fewer inactive variants are shown than the library holds.
measured-endpoint: self-aminoacylation
Note: the reply should be a number with no unit written.

- sequence: "UUUUACCUAGGUCAUCGGGUG [Fam2.2 aminoacylation ribozyme variant]"
  self-aminoacylation: 6.78

Task item: Given AUUAACCUAGGUGAUCGGGUG [Fam2.2 aminoacylation ribozyme variant] , respond with its self-aminoacylation.
Reply: 2.31

Task item: Item CCACACUUCAAGCUAUCGGUU [Fam1B.1 aminoacylation ribozyme variant] : provide self-aminoacylation
Reply: 1.29

Task item: Give the measured self-aminoacylation for AUCACCCUGGUCUUCGAGUGA [Fam2.1 aminoacylation ribozyme variant]
Reply: 3.81

Task item: Please look at this sequence and report its self-aminoacylation: CUAUUUCAAACAAUCGGUUUG [Fam1A.1 aminoacylation ribozyme variant]
Reply: 0.907

Task item: Quickly give me recorded self-aminoacylation for AAGUUUUCUGAUAGUCGCAAG [Fam3.1 aminoacylation ribozyme variant]
Reply: 1.77

Task item: Specify reported self-aminoacylation for the sequence shown: AUUCACCUAGUUCAUCGCGUG [Fam2.2 aminoacylation ribozyme variant]
Reply: 3.27

Task item: Note down self-aminoacylation recorded for CUACUUCCAACAUUCGGUCUG [Fam1A.1 aminoacylation ribozyme variant]
Reply: 1.17

Task item: // fetch self-aminoacylation given entry AUCACCCUGGUCAUCUAGUGA [Fam2.1 aminoacylation ribozyme variant]
Reply: 5.3

----------
system: biotinyl-Ile-oxazolone; assay: self-aminoacylation, catalytic enhancement (BIO) (fold over background); higher = more active; k-Seq, kA / k0A0; sequences stand for … in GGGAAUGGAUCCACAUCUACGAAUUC…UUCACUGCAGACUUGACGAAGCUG
Variants at the floor of the assay were thinned out.
measured-endpoint: self-aminoacylation
Lab note: record just the number, no unit beside it.

- sequence: "CCAUACUUCAAGCAAUCCGUC [Fam1B.1 aminoacylation ribozyme variant]"
  measured-on: "biotinyl-Ile-oxazolone"
  self-aminoacylation: 1.15
- sequence: "AAUCCCCUGGUCAUCGAGUGA [Fam2.1 aminoacylation ribozyme variant]"
  measured-on: "biotinyl-Ile-oxazolone"
  self-aminoacylation: 3.35
- sequence: "AUUCACCUAGGGCACCGGGUG [Fam2.2 aminoacylation ribozyme variant]"
  measured-on: "biotinyl-Ile-oxazolone"
  self-aminoacylation: 3.58

Moving on to another sequence below.
Task item: Find the measured self-aminoacylation of CCACACUUCAAGCCAUGGGUC [Fam1B.1 aminoacylation ribozyme variant] and report it.
Reply: 1.15

----------
test system: biotinyl-Ile-oxazolone; test: self-aminoacylation, catalytic enhancement (BIO) (fold over background); higher = more active; k-Seq, kA / k0A0; sequences stand for … in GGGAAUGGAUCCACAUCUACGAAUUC…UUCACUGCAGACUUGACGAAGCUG
Fewer inactive variants are shown than the library holds.
# self-aminoacylation >= 6 gives fulfilled, anything below gives not fulfilled

These solved cases illustrate the format of a correct answer.
- sequence: "AAGUUUGCUAAUCGGCGCAAG [Fam3.1 aminoacylation ribozyme variant]"
  measured-on: "biotinyl-Ile-oxazolone"
  assigned-label: "not fulfilled"
- sequence: "AUUUACCGAGGUCAUCGGGUG [Fam2.2 aminoacylation ribozyme variant]"
  measured-on: "biotinyl-Ile-oxazolone"
  assigned-label: "not fulfilled"

Task item: Has CCAGACUUCAAGCAUUCGGUC [Fam1B.1 aminoacylation ribozyme variant] a recorded self-aminoacylation greater than or equal to 6?
Reply: not fulfilled

Task item: Please tell me: is the sequence AUUCACCUCGGUCAGCGGGUG [Fam2.2 aminoacylation ribozyme variant] at or over 6 in terms of self-aminoacylation?
Reply: not fulfilled

Task item: Given AUGUUCGCUAAUAGUCGCAAG [Fam3.1 aminoacylation ribozyme variant] , state whether its self-aminoacylation is at least 6.
Reply: not fulfilled

Task item: Record AUCACCCUGGUCAUCGAGUGA [Fam2.1 aminoacylation ribozyme variant] ; criterion: self-aminoacylation no lower than 6. Met?
Reply: fulfilled

Task item: Determine whether measured self-aminoacylation meets or exceeds 6 for CUUCACCAAGGUCAUCGGGUG [Fam2.2 aminoacylation ribozyme variant]
Reply: not fulfilled

Task item: Check if self-aminoacylation >= 6 (inclusive). Item: GUUCACCUAGGUCAUCGGGUA [Fam2.2 aminoacylation ribozyme variant]
Reply: fulfilled

Task item: Does self-aminoacylation meet or surpass 6 for AUUACCCUUAUCAUCGAGUGA [Fam2.1 aminoacylation ribozyme variant] ?
Reply: not fulfilled

----------
tested on: biotinyl-Leu-oxazolone; assay: self-aminoacylation, catalytic enhancement (BLO) (fold over background); higher = more active; k-Seq, kA / k0A0; sequences stand for … in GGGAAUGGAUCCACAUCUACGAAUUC…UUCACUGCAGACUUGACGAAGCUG
This sample holds only a part of the variants without activity.
Classes based on self-aminoacylation: lowest: < 1; middle: ≥ 1 and < 2; highest: ≥ 2

Would you please look over these solved cases?
- sequence: "CUACUUCAUACAGUCGGUCUG [Fam1A.1 aminoacylation ribozyme variant]"
  measured-on: "biotinyl-Leu-oxazolone"
  assigned-label: "lowest"
- sequence: "AAAUUUGGUAAUAGUCGCAAG [Fam3.1 aminoacylation ribozyme variant]"
  measured-on: "biotinyl-Leu-oxazolone"
  assigned-label: "middle"
- sequence: "CCACACUCCAAGCAAUCGGUG [Fam1B.1 aminoacylation ribozyme variant]"
  measured-on: "biotinyl-Leu-oxazolone"
  assigned-label: "highest"
- sequence: "CUCGUUCAAACAAUCGGUCUG [Fam1A.1 aminoacylation ribozyme variant]"
  measured-on: "biotinyl-Leu-oxazolone"
  assigned-label: "middle"
- sequence: "AAGUUUGCUAAUAGUGGCGAG [Fam3.1 aminoacylation ribozyme variant]"
  measured-on: "biotinyl-Leu-oxazolone"
  assigned-label: "middle"
- sequence: "AUUACCCUUGUCAUCUAGUGA [Fam2.1 aminoacylation ribozyme variant]"
  measured-on: "biotinyl-Leu-oxazolone"
  assigned-label: "highest"

Pending sequence:
Task item: For this sequence, which bin applies? AUUUACCUAGGUCAUCGGAUG [Fam2.2 aminoacylation ribozyme variant]
Reply: lowest

----------
test system: biotinyl-Phe-oxazolone; experiment: self-aminoacylation, catalytic enhancement (BFO) (fold over background); higher = more active; k-Seq, kA / k0A0; sequences stand for … in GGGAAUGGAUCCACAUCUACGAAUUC…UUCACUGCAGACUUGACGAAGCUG
This sample holds only a part of the variants without activity.
# reported self-aminoacylation; entries follow
// print number alone

Examples with answers:
- sequence: "AUUCACCUAGGUCAUCGGGCA [Fam2.2 aminoacylation ribozyme variant]"
  measured-on: "biotinyl-Phe-oxazolone"
  self-aminoacylation: 3.27
- sequence: "AAGUUUGCUAAUAGCCACAAG [Fam3.1 aminoacylation ribozyme variant]"
  measured-on: "biotinyl-Phe-oxazolone"
  self-aminoacylation: 1.59
- sequence: "AUUACCCUGGUCAUCGGCUGA [Fam2.1 aminoacylation ribozyme variant]"
  measured-on: "biotinyl-Phe-oxazolone"
  self-aminoacylation: 4.87
- sequence: "AUUUUUGCUAAUAGUCGCAAG [Fam3.1 aminoacylation ribozyme variant]"
  measured-on: "biotinyl-Phe-oxazolone"
  self-aminoacylation: 1.71
- sequence: "AUUCAGCUUGGUCAUCGGGUG [Fam2.2 aminoacylation ribozyme variant]"
  measured-on: "biotinyl-Phe-oxazolone"
  self-aminoacylation: 14

Task item: Please report the measured self-aminoacylation for AUGCACCUAGGUCCUCGGGUG [Fam2.2 aminoacylation ribozyme variant]
Reply: 27.2

Task item: Write down self-aminoacylation measured for item AUUCUCCUAGGGCAUCGGGUG [Fam2.2 aminoacylation ribozyme variant]
Reply: 28.7

Task item: Using the record for AAUACACUGGUCAUCGAGUGA [Fam2.1 aminoacylation ribozyme variant] , state its measured self-aminoacylation.
Reply: 8.92

Task item: Report measured self-aminoacylation; entry is AGUCAGCUAGGUCAUCGGGUG [Fam2.2 aminoacylation ribozyme variant]
Reply: 58.2

Task item: Give the value of self-aminoacylation reported for the following: AUUCACCUAGGUCAUCGGGCG [Fam2.2 aminoacylation ribozyme variant]
Reply: 13.8

Task item: Read the entry CCACACUUCUAGCAAUAGGUC [Fam1B.1 aminoacylation ribozyme variant] and write its reported self-aminoacylation.
Reply: 0.978

Task item: Tell me self-aminoacylation reported for AUUACCCUGGUUAUCGAGUGA [Fam2.1 aminoacylation ribozyme variant]
Reply: 25.2

----------
tested on: biotinyl-Phe-oxazolone; test: self-aminoacylation, catalytic enhancement (BFO) (fold over background); higher = more active; k-Seq, kA / k0A0; sequences stand for … in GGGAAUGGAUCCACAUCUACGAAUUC…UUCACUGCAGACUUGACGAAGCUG
This sample holds only a part of the variants without activity.
measured-endpoint: self-aminoacylation
Give only the figure.

Answered examples (4):
- sequence: "CUACUUCAAGAAAUCGGUCUG [Fam1A.1 aminoacylation ribozyme variant]"
  self-aminoacylation: 4.36
- sequence: "CCGCACUUCAAGCAUUCGGUC [Fam1B.1 aminoacylation ribozyme variant]"
  self-aminoacylation: 1.88
- sequence: "CCACACUUCAUGGAAUCGGUC [Fam1B.1 aminoacylation ribozyme variant]"
  self-aminoacylation: 0.928
- sequence: "AUGCACCUAGAUCAUCGGGUG [Fam2.2 aminoacylation ribozyme variant]"
  self-aminoacylation: 10.6

Task item: Check the records and state self-aminoacylation for CUACUUAAUACAAUCGGUCUG [Fam1A.1 aminoacylation ribozyme variant]
Reply: 0.835

Task item: Consider the sequence AUUCACAUAGGGCAUCGGGUG [Fam2.2 aminoacylation ribozyme variant] and give its recorded self-aminoacylation.
Reply: 20.9

Task item: Input GCACACUUCAAGCACUCGGUC [Fam1B.1 aminoacylation ribozyme variant] , output reported self-aminoacylation.
Reply: 4.05

Task item: Please report self-aminoacylation for the following sequence: AAGUUUUCUGAUAGUCGCAAG [Fam3.1 aminoacylation ribozyme variant]
Reply: 2.8

Task item: Identify measured self-aminoacylation corresponding to AUUACCCUGAUCAUCGCGUGA [Fam2.1 aminoacylation ribozyme variant]
Reply: 99.5

Task item: Given AUUACCGUGCUCAUCGAGUGA [Fam2.1 aminoacylation ribozyme variant] , respond with its self-aminoacylation.
Reply: 2.01
